Biological target: human Nav1.5 (Homo sapiens (Human), UniProt Q14524)
Sequence (Q14524 whole entry): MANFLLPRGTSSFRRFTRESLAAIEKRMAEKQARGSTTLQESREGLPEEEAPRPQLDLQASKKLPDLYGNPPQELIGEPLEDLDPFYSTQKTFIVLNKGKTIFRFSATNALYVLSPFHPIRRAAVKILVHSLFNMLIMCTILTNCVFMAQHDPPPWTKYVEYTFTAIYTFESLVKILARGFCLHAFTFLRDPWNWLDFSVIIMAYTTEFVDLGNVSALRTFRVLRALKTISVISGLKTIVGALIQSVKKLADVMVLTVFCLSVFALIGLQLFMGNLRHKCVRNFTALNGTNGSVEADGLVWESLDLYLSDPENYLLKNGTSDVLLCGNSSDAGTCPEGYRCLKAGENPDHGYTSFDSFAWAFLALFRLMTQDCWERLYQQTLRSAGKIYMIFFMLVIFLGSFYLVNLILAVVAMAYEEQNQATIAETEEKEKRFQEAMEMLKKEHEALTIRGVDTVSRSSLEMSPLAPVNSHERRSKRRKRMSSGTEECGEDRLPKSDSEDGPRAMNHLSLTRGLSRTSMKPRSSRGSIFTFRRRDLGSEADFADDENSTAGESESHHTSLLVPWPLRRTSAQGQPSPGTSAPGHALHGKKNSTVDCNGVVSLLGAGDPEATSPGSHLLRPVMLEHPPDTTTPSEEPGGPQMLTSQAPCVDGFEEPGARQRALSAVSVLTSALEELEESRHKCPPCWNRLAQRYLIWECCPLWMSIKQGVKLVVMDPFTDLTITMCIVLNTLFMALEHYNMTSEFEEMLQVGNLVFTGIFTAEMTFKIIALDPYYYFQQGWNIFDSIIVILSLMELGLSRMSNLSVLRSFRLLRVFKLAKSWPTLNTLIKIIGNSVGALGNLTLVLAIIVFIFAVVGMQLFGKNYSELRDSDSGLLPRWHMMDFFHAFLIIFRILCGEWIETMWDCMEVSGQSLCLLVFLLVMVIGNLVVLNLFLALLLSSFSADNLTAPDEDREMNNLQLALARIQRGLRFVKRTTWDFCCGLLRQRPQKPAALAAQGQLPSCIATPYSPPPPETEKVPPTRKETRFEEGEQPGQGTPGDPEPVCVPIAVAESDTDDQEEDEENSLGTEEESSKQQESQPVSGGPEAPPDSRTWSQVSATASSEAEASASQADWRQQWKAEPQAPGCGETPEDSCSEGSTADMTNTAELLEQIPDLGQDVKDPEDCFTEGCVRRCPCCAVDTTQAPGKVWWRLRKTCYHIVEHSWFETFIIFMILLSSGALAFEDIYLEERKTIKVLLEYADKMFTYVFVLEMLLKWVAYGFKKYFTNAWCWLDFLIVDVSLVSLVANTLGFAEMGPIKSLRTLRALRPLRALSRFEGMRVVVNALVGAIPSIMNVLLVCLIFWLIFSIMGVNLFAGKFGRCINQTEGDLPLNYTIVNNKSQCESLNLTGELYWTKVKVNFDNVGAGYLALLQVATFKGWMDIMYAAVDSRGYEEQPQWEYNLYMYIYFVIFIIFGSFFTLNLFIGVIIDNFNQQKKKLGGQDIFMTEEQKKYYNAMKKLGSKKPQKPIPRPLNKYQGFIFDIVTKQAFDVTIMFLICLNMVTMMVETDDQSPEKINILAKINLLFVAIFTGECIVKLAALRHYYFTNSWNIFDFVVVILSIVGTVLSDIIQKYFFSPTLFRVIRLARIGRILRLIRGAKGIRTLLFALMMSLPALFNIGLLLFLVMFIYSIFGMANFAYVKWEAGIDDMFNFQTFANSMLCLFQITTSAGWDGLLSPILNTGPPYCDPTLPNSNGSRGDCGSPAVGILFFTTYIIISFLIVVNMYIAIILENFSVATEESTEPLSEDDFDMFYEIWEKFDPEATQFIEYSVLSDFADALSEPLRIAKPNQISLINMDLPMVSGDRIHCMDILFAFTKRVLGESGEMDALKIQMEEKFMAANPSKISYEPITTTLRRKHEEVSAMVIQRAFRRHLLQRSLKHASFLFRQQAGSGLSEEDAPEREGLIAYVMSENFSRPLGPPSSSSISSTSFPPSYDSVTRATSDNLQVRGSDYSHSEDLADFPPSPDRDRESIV
Test: Qpatch automated patch-clamp, peak Nav1.5 current inhibition, 1 Hz sinus rate, ventricular condition (holding potential -100 mV)
Type: cell-based
Conditions: CHO-K1 cells stably expressing human Nav1.5, without ATX-II
pIC50: −log10 of the molar value.

- compound: "CC(O)(CS(N)(=O)=O)c1cccc(-c2nnn(Cc3cccc(C(F)(F)F)c3)n2)n1 (single isomer, unassigned) [Example 41]"
  pIC50: "< 4.52"
- compound: "CC(O)(CS(N)(=O)=O)c1ccc(Cl)c(-c2nnn(Cc3cc(OC(F)(F)F)ccc3F)n2)c1 (single isomer, unassigned) [Example 8]"
  pIC50: "< 4.52"
- compound: "CC(c1cccc(-c2nnn(Cc3cc(OC(F)(F)F)ccc3F)n2)n1)C(CO)S(N)(=O)=O (single isomer, unassigned) [Example 33]"
  pIC50: 5.17
- compound: "CC(O)(CS(N)(=O)=O)c1cccc(-c2nnn(Cc3cccc(C(F)(F)F)c3)n2)n1 (single isomer, unassigned) [Example 40]"
  pIC50: "< 4.52"
- compound: "CC(O)(CS(N)(=O)=O)c1nc(-c2nnn(Cc3cc(OC(F)(F)F)ccc3F)n2)ccc1F (single isomer, unassigned) [Example 44]"
  pIC50: "< 4.52"
- compound: "CC(C(C)(O)c1cccc(-c2nnn(Cc3cc(OC(F)(F)F)ccc3F)n2)n1)S(N)(=O)=O (single isomer, unassigned) [Example 13]"
  pIC50: 4.92
